Recorded scaled log2 fold change for the following variants
B1: library; numbered along this chain (parent)
chain: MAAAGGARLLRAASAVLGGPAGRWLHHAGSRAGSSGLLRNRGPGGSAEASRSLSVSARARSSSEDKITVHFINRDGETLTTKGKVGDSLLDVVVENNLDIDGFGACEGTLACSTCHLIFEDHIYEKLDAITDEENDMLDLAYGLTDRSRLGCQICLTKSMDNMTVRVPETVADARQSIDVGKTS

Variants of: B1
assay details: scaled log2 fold change in cell abundance, elesclomol vs control (0 = silent mean, 1 = nonsense mean) (scaled log2 ratio); higher = higher viability under elesclomol (loss of FDX1 cuproptosis function);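 also: variant abundance is its share of total variant reads in each endpoint sample, from next-generation sequencing of the integrated ORF PCR-amplified out of genomic DNA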
condition notes: with HEK293T FDX1 KO; elesclomol 40 nM; glucose 10 mM; 11 days
Answer field: number only, no words.

Worked cases, answers included:
D146H -0.639
A141Y -0.341

Indicate the recorded scaled log2 fold change value for this variant: "T145P"
-0.123

# return recorded scaled log2 fold change for entry "C115T"
0.783

Identify the reported scaled log2 fold change for the following entry. "T68H"
-0.699
